- Tested on: OVCAR-3 ovarian
- ASSAY_SUMMARY: NCI tumour cell line growth inhibition, 48 h; in the data active = GI50 below about 0.43 µM; inactive = the rest
I would appreciate it if you answered using one of these outcomes: active, inactive

[in] Recorded test call requested for NC(=O)c1c(NC(=O)c2ccccc2)sc2c1CCC(=O)C2
[out] inactive

[in] // param item: Cc1cc(N[C@@H]2CCC[C@H](Nc3ccnc4cc(Cl)ccc34)C2)nc(N2CCCCCC2)n1 ; yields the recorded call
[out] inactive

[in] Each compound tested received a call. Report the one for CC1(C)OC2C(CO[Si](C)(C)C(C)(C)C)OC(n3c(I)c(C#C[Si](C)(C)C)c(=O)[nH]c3=O)C2O1 (centres undefined) .
[out] inactive

[in] Recorded call for CNCCOC(=O)/C=C1\CC[C@H]2[C@@H]([C@@H](O)C(=O)[C@@H]3[C@]2(C)CC[C@H](O)[C@]3(C)C(=O)OC)[C@H]1C ?
[out] active

[in] Please share the test call associated with CCOC(=O)Nc1cc2c(c(N)n1)N=C(c1ccccc1)CO2 .
[out] active

[in] So what was the verdict on CC(C)(/C=C(\C#N)C(=O)N1CCC[C@@H](n2nc(-c3ccc(Oc4ccccc4)cc3F)c3c(N)ncnc32)C1)N1CCN(C2COC2)CC1 in this test?
[out] inactive

[in] Returns: the outcome recorded for COc1cnc2c(c1)C(=O)c1c-2n(CCCN2CCOCC2)c(=O)c2cc(Cl)ccc12 in this assay.
[out] inactive

[in] What outcome does the record of this test show for O=C(Nc1cccc(C(F)(F)F)c1)c1ccc(NC2=C(Cl)C(=O)N(Cc3ccc(Cl)cc3Cl)C2=O)cc1 ?
[out] inactive

[in] Hi, do you know how NC1CCN(Cc2ccccc2)CC1 came out in this test?
[out] inactive

---

- System: SNB-75 CNS
- ASSAY_SUMMARY: NCI tumour cell line growth inhibition, 48 h; in the data active = GI50 below about 0.43 µM; inactive = the rest
Write down the outcome that applies. Available outcomes: TRUE (active), FALSE (inactive)

[in] Recorded call for CC1(C)OC2C(CO[Si](C)(C)C(C)(C)C)OC(n3c(I)c(C#C[Si](C)(C)C)c(=O)[nH]c3=O)C2O1 (centres undefined) ?
[out] FALSE

[in] Query: recorded result category for O=C(/C=C/c1ccc[nH]1)c1ccc(-n2ccc(C(F)(F)F)n2)cc1 in this test
[out] FALSE

[in] I'd appreciate the recorded outcome for COc1cc(N=Nc2ccc(O)c3ncccc23)c2ncccc2c1 from this test.
[out] FALSE

[in] # lookup: test call for N=c1c2c(-c3ccccc3)c(-c3ccccc3)n(Cc3ccccc3)c2ncn1C1CCC(O)CC1 (centres undefined)
[out] FALSE

[in] Given Cc1nnc(Nc2ccc(NC(=O)Nc3ccc(Cl)cc3)cc2)c2ccccc12 , state the outcome it received in this test.
[out] FALSE

[in] Tell me the recorded outcome of this test for CN1CCN(c2ccc(Nc3cc(-c4cccc(-n5ccc6cc(C7CC7)cc(F)c6c5=O)c4CO)cn(C)c3=O)nc2)CC1 .
[out] FALSE

[in] State the result this test recorded for NC(=O)c1c(NC(=O)c2ccccc2)sc2c1CCC(=O)C2 .
[out] FALSE

[in] Which outcome was entered for the molecule O=c1oc2ccc(-c3ccc(F)cc3F)cc2c(=O)n1-c1cccc(C(F)(F)F)c1 in this test?
[out] FALSE

[in] Assay outcome for CN(C)C1CCN(C(=O)c2ccc(NC(=O)Nc3ccc(-c4nc(N5CCOCC5)c5cccn5n4)cc3)cc2)CC1 : what was it?
[out] TRUE

---

- Tested on: NCI-H522 lung
- ASSAY_SUMMARY: NCI tumour cell line growth inhibition, 48 h; in the data active = GI50 below about 0.43 µM; inactive = the rest
Respond with a class label; see active, inactive

[in] How was O=C(c1ccco1)c1c(C(F)(F)F)nc2ccc(Cl)cc2[n+]1[O-] classified in this test?
[out] inactive

[in] Field: outcome | Entry: COc1cnc2c(c1)C(=O)c1c-2n(CCCN2CCOCC2)c(=O)c2cc(Cl)ccc12
[out] active

[in] Hi team, can someone confirm the assay call for COc1cc(N(CCC#N)CCC#N)ccc1/C(N=Nc1ccc(Cl)cc1)=N/NC(=O)c1cc(Br)ccc1O ?
[out] inactive

[in] What call does the record list for Cc1nc(Nc2cccnc2)sc1C(=O)/C=C/c1ccc(F)cc1 ?
[out] inactive

[in] Write down the call the test reported for this molecule. Item: CC(NCCC(c1ccccc1)c1ccccc1)c1ccccc1 (stereo not drawn)
[out] inactive

[in] Hi, sorry to bother you, what did the test record for CC(=O)ON1CCCC(P(=O)(OCCSC(=O)C(C)(C)C)OCCSC(=O)C(C)(C)C)C1=O (stereo not drawn) ?
[out] inactive

[in] Returns: the outcome recorded for O=C(/C=C/c1ccc[nH]1)c1ccc(-n2ccc(C(F)(F)F)n2)cc1 in this assay.
[out] inactive

[in] Check the results log: what was the call for Cc1cc(N[C@@H]2CCC[C@H](Nc3ccnc4cc(Cl)ccc34)C2)nc(N2CCCCCC2)n1 ?
[out] inactive

---

- Tested on: SK-OV-3 ovarian
- ASSAY_SUMMARY: NCI tumour cell line growth inhibition, 48 h; in the data active = GI50 below about 0.43 µM; inactive = the rest
Classes to choose from: true (active), false (inactive)

[in] Dear all, I need the recorded test outcome for O=C(Nc1cccc(C(F)(F)F)c1)c1ccc(NC2=C(Cl)C(=O)N(Cc3ccc(Cl)cc3Cl)C2=O)cc1 , thank you.
[out] false

[in] For O=C(c1ccco1)c1c(C(F)(F)F)nc2ccc(Cl)cc2[n+]1[O-] , what call appears in the results of this test?
[out] false

[in] Outcome? CC(NCCC(c1ccccc1)c1ccccc1)c1ccccc1 (stereo unspecified)
[out] false

[in] For O=C(Nc1ccc(Br)cc1F)c1cc(Cl)ccc1O , which call appears in the assay record?
[out] false

[in] Hi team, can someone confirm the assay call for CCCC(=O)Nc1cn(COC)c(C(=O)N2C[C@@H]3C[C@]34C2=CC(=O)c2[nH]cc(C)c24)n1 ?
[out] false

[in] Per the assay record, what outcome was assigned to COC(=O)c1c2c(c(C)[n+]([O-])c1C)C(=O)C=C(NCc1ccc(F)cc1)C2=O ?
[out] false

[in] Would you mind telling me which call this test gave Nc1ncc(-c2ccc3ncnc(Nc4ccc(F)c(Cl)c4)c3c2)cn1 ?
[out] false

[in] Hey, what did the test say about CCn1c(O)c(/C=N/NC(=O)C(C)c2ccc(CC(C)C)cc2)sc1=S (stereo unspecified) ?
[out] false

[in] State the result this test recorded for COC(=O)[C@]12CC[C@@H](C)[C@H](C)[C@@H]1C1=CC[C@@H]3[C@@]4(C)C[C@@H](O)[C@H](O)[C@@](C)(CO)C4=CC[C@@]3(C)[C@]1(C)CC2 .
[out] false

[in] How was CC(=O)ON1CCCC(P(=O)(OCCSC(=O)C(C)(C)C)OCCSC(=O)C(C)(C)C)C1=O (stereo unspecified) classified in this test?
[out] false

[in] What did this assay record as the result for O=C(Cc1ccc(F)c(Cl)c1)Nc1cc(C2(C(F)(F)F)CC2)nn1CC1CCCCC1 ?
[out] false

[in] Hey, what did the test say about COC(=O)c1ccc2c(c1)C(=O)c1c-2n(CCCN=[N+]=[N-])c(=O)c2cc(OC)c(OC)cc12 ?
[out] false

[in] # outcome recorded in this test, key = S=c1[nH]c(=S)c2cc3ccccc3nc2[nH]1
[out] false

[in] Each compound tested received a call. Report the one for C[C@@H]1C[C@@H]([C@@H](CC2CC(=O)NC(=O)C2)OC(=O)CC(=O)c2ccccc2)C(=O)[C@@H](C)C1 .
[out] true

[in] Returns: the outcome recorded for NC(=O)c1c(NC(=O)c2ccccc2)sc2c1CCC(=O)C2 in this assay.
[out] false

[in] Hey, what did the test say about COc1ccc2nc3ccccc3c(NCc3ccc(F)cc3)c2c1 ?
[out] false

---

- Test system: 786-0 renal
- ASSAY_SUMMARY: NCI tumour cell line growth inhibition, 48 h
Give TGI for every item shown.

[in] Name the recorded TGI for COc1ccc(-c2nc(SCC(=O)NNC(=S)Nc3ccccc3)[nH]c2-c2ccc(OC)cc2)cc1 .
[out] 60.7 µM

[in] Using the record for O=C(O)CN1CCNCCN(CC(=O)O)CCN(CC(=O)O)CCNCC1 , report its TGI.
[out] > 100 µM

[in] Which TGI is listed for BrC(=C(c1ccc(OC2CCCCO2)cc1)c1ccc(OC2CCCCO2)cc1)c1ccccc1 (stereo unspecified) ?
[out] > 100 µM

[in] Dear colleague, I am looking for the recorded TGI of the following compound: N[C@@H](Cc1ccccc1)C(=O)N1CCC[C@@H]1P(=O)(Oc1ccccc1)Oc1ccccc1
[out] > 100 µM

[in] So what does the record say about TGI for CCOC(=O)c1cccc(N=Nc2nc[nH]c2/C=C/C(=O)OC)c1 ?
[out] > 100 µM

[in] Which TGI value belongs to NC(N)=NCCCC(=O)O ?
[out] > 100 µM

Origin of the recorded values: PubChem BioAssay (NCI)
